Origin of measurements: patent US5171851A

Here the recorded change in vivo at 0.01 mg/kg is given for each entry.
- Test system: anesthetized cats
- Assay Method Text: cardiotonic effect on anesthetized cats
- Assay type: in vivo, cat
- Assay Conditions: Felis catus; 0.01 mg/Kg iv; read-out: LVP (%)
Hi! Could you send only the number? It should be in %, unit omitted.

Worked examples, 4 molecules total:
[[record]]
compound = "Cc1cn(-c2cc(C)c3c(c2)CSC(=O)N3)cn1"
endpoint_label = "change in vivo at 0.01 mg/kg"
value_reported = 3.3

[[record]]
compound = "O=C1Nc2ccc(-n3ccnc3)cc2CS1"
endpoint_label = "change in vivo at 0.01 mg/kg"
value_reported = 0

[[record]]
compound = "Cc1cn(-c2ccc3c(c2)CSC(=O)N3)cn1"
endpoint_label = "change in vivo at 0.01 mg/kg"
value_reported = 0

[[record]]
compound = "Cc1cn(-c2ccc3c(c2)COC(=O)N3)cn1"
endpoint_label = "change in vivo at 0.01 mg/kg"
value_reported = 7.69


Given the entry `Cc1cn(-c2ccc3c(c2)CSC(=S)N3)cn1` , report its measured change in vivo at 0.01 mg/kg. 0

// change in vivo at 0.01 mg/kg lookup, key: `Cc1cn(-c2cc(C)c3c(c2)COC(=O)N3)cn1` 0.1

Requested field: change in vivo at 0.01 mg/kg. Item: `S=C1Nc2ccc(-n3ccnc3)cc2CS1` 2

Would you mind telling me what change in vivo at 0.01 mg/kg value was observed for `Cc1cn(-c2cc(C)c3c(c2)CSC(=S)N3)cn1` ? 1.2
